Values were extracted from PubChem BioAssay AID248.

# System: L1210 leukemia ip in BDF1 mice, survival T/C
# experiment.summary: NCI In Vivo Anticancer Drug Screen. Data for tumor model L1210 Leukemia (intraperitoneal) in B6D2F1 (BDF1) mice
# measurement.context: endpoint: mean survival time; dose: 400.0 mg/kg/injection; schedule: Q01DX001 (ip); vehicle: saline; higher = longer survival
Inconclusive results and toxic doses are left out.
molecules and their reported T/C

[[record]]
molecule = "CC1CN1P(=S)(Oc1ccccc1)N1CC1C (configuration not stated)"
meas_value = "100 % of control"

[[record]]
molecule = "CSCSCC(NC(=O)c1ccccc1)C(=O)O (configuration not stated)"
meas_value = "98 % of control"


query: Which T/C value is on record for COc1cccc(C2N(Cc3ccc(OC)cc3OC)CCCN2Cc2ccc(OC)cc2OC)c1 ?
result: 96 % of control

query: Report T/C for CCCCCCCCCCCCCCCC1=C(O)c2ccccc2C(=O)C1=O please.
result: 103 % of control

====

# Test system: L1210 leukemia ip in BDF1 mice, survival T/C
# experiment.summary: NCI In Vivo Anticancer Drug Screen. Data for tumor model L1210 Leukemia (intraperitoneal) in B6D2F1 (BDF1) mice
# measurement.context: endpoint: mean survival time; dose: 100.0 mg/kg/injection; schedule: Q01DX005 (ip); vehicle: saline; higher = longer survival
Toxic doses and inconclusive results are not listed.
outcome.measure: T/C

Would you please look over these solved cases?
[[record]]
compound = "O=c1n(C2OC(CO)C(O)C2O)ccc2nccn12 (stereo not given)"
outcome_measure = "T/C"
meas_value = "103 % of control"

[[record]]
compound = "CC1(C)OC2COC(c3[nH]nc(C(N)=O)c3Br)C2O1 (stereo not given)"
outcome_measure = "T/C"
meas_value = "104 % of control"

[[record]]
compound = "Cn1cnc([N+](=O)[O-])c1/N=C/c1ccccc1"
outcome_measure = "T/C"
meas_value = "100 % of control"

[[record]]
compound = "Nc1ncnc2c1ncn2C1OC(CO)C2OP(=O)(O)OC21 (stereo not given)"
outcome_measure = "T/C"
meas_value = "95 % of control"


Note: attention shifts to another entry.
query: Name the reported T/C value associated with the compound OCC1OC(n2ccc3c2ncn2ccnc32)C(O)C1O (stereo not given)
result: 93 % of control

====

# Tested on: L1210 leukemia ip in BDF1 mice, survival T/C
# experiment.summary: NCI In Vivo Anticancer Drug Screen. Data for tumor model L1210 Leukemia (intraperitoneal) in B6D2F1 (BDF1) mice
# measurement.context: endpoint: mean survival time; dose: 200.0 mg/kg/injection; schedule: Q01DX001 (ip); vehicle: saline; higher = longer survival
Toxic doses and inconclusive results are not listed.
Each entry below carries its reported T/C.

Reference set (2 entries):
[[record]]
compound = "[Br][Ga]([Br])[Br]"
meas_value = "101 % of control"

[[record]]
compound = "COC1OC2COC(c3ccccc3)OC2C2OC(=S)OC12 (stereo not given)"
meas_value = "98 % of control"


query: Any idea what T/C was measured for Cc1cccn2c(=O)cc(O)nc12 ?
result: 116 % of control

====

# System: L1210 leukemia ip in BDF1 mice, survival T/C
# experiment.summary: NCI In Vivo Anticancer Drug Screen. Data for tumor model L1210 Leukemia (intraperitoneal) in B6D2F1 (BDF1) mice
# measurement.context: endpoint: mean survival time; dose: 200.0 mg/kg/injection; schedule: Q01DX009 (ip); vehicle: saline with Tween-80; higher = longer survival
Inconclusive results and toxic doses are left out.
outcome.measure: T/C

Example results:
[[record]]
compound = "CCCCNC(=O)Oc1cccc(NC(=O)OC)c1"
outcome_measure = "T/C"
meas_value = "92 % of control"

[[record]]
compound = "CCCCCCCCCCCCCCCC(=O)N(CCCN)CCCCN(CCCN)C(=O)CCCCCCCCCCCCCCC"
outcome_measure = "T/C"
meas_value = "96 % of control"

[[record]]
compound = "N#CC(C#N)C1c2ccccc2C([N+](=O)[O-])c2ccccc21 (stereo unspecified)"
outcome_measure = "T/C"
meas_value = "96 % of control"

[[record]]
compound = "CCCCCCCCC1C(CCCCCCCC(=O)OC)SC(F)(F)C1(F)F (stereo unspecified)"
outcome_measure = "T/C"
meas_value = "93 % of control"

[[record]]
compound = "Cc1ccccc1C(c1ccccc1)C(CC(=O)O)CC(=O)O (stereo unspecified)"
outcome_measure = "T/C"
meas_value = "95 % of control"


query: // query T/C value for entry Cc1ccc(S(=O)(=O)N(C)CCCCC(=O)O)cc1
result: 104 % of control

query: Value lookup for T/C; key = CCN(CC)CCNc1ncnc2c1cnn2-c1ccc(Cl)cc1
result: 95 % of control

query: Report T/C for CC(OC(=O)Nc1ccccc1)C(=O)O (stereo unspecified) please.
result: 92 % of control
